These data points were gathered from PubChem BioAssay (NCI).

test system: SW-620 colon; assay: NCI tumour cell line growth inhibition, 48 h
readout label: TGI

Reference set (5 entries):
structure notation	assay system	readout label	experimental result
O=C1/C=C(/c2ccc(O)cc2)[C@@H](O)Cc2ccc(O)cc2O1	SW-620 colon	TGI	> 100 µM
Cc1cc2c(C)n(Cc3ccccc3Cl)nc2c(C(=O)O)c1C	SW-620 colon	TGI	> 100 µM
CC(C)=CCC/C(C)=C/COc1c2ccoc2cc2oc(=O)ccc12	SW-620 colon	TGI	> 100 µM
COC(=O)N/N=C(\C)c1c(O)cc(C)oc1=O	SW-620 colon	TGI	> 100 µM
COc1ccc2c(c1)nc(C(=O)c1ccco1)c(C(F)(F)F)[n+]2[O-]	SW-620 colon	TGI	> 100 µM

Now let's try a different one.
*Q* Can you share its TGI? I mean this compound: COc1ccc2c3c([nH]c2c1)CCN(CCCC(=O)c1ccc(F)cc1)C3
*A* 32.8 µM
